test system: Plasmodium falciparum; assay: GSK_TCMDC: Inhibition of Plasmodium falciparum 3D7 in whole red blood cells, using parasite LDH activity as an index of growth. Test compounds present at 2uM; format: functional
Could you please report measured Inhibition for the items listed next?
Give bare numbers, in %.

In the examples that follow, each entry is paired with its recorded Inhibition.
INSERT INTO results (molecule, quantity, measureunit, valuereported) VALUES
  ('COc1ccc(CNC2CCCC2)cc1-c1ccc(S(=O)(=O)NCCN2CCCC2)s1.O=C(O)C(F)(F)F', 'Inhibition', '%', 96),
  ('NC1CCN(c2nc(NCCc3ccc(O)cc3)nc(NCc3ccccc3-c3ccccc3)n2)CC1.O=C(O)C(F)(F)F', 'Inhibition', '%', 99),
  ('O=C(Nc1ccc(-c2csc(-c3nc4ccccc4[nH]3)c2)cc1)Nc1ccsc1', 'Inhibition', '%', 100),
  ('CN(c1ccc(NC(=O)Nc2cc(C(C)(C)C)on2)cc1)c1ccnc(NCCOC(=O)Nc2cc(C(C)(C)C)on2)n1.O=C(O)C(F)(F)F', 'Inhibition', '%', 100),
  ('COc1ccc(CCc2ccc(-c3c(C)[nH]c(C)c(Cl)c3=O)cc2)cc1OC', 'Inhibition', '%', 99),
  ('CC(=O)N(C)C1CCN(Cc2cccc(-c3ccc(-c4nc5cc(F)ccc5[nH]4)cc3)c2)C1.O=C(O)C(F)(F)F (stereo not drawn)', 'Inhibition', '%', 92);

Hey, can you go through the list below and give me Inhibition for every item?
1. O=C(Nc1ccc(-c2ccc(CN3CCNCC3)cc2)cc1)c1cccc(Cl)c1.O=C(O)C(F)(F)F
2. OCC1CCN(Cc2cccc(C#Cc3cc4ncnc(Nc5ccc(OCc6cccc(F)c6)c(Cl)c5)c4s3)n2)CC1

OUTPUT:
1: 91; 2: 99

----------
system: Plasmodium falciparum; experiment: GSK_TCMDC: Inhibition of Plasmodium falciparum 3D7 in whole red blood cells, using parasite LDH activity as an index of growth. Test compounds present at 2uM; type: functional
The threshold is inclusive: Inhibition of exactly 90% counts as 1 (yes); values below receive 0 (no).

Solved cases below.
INSERT INTO results (compound, label) VALUES
  ('O=C1Nc2cccc3c2C1(CCCCN1CCC(c2c[nH]c4cc(C(F)(F)F)ccc24)CC1)CCC3 (centres undefined)', '1 (yes)'),
  ('CCOc1ccc(-c2nonc2NC(=O)c2ccc(F)cc2)cc1OCC', '1 (yes)'),
  ('Cc1cc(NC(=O)c2ccc(-c3ccccc3)cc2)no1', '0 (no)'),
  ('CCCOc1cc(NC(=O)Nc2ccnc3ccccc23)cc(OCCC)c1.Cl', '1 (yes)'),
  ('Cc1ccc(C(C#N)c2ccc3c(C(F)(F)F)cc(C(F)(F)F)nc3n2)cc1 (centres undefined)', '1 (yes)');

INPUT: Textbook exercise: given the entry FC(F)(F)c1ccc2[nH]c(-c3cccc(-c4cccc(CNCCc5ccncc5)c4)c3)nc2c1.O=C(O)C(F)(F)F , state whether its Inhibition is greater than or equal to 90%.
OUTPUT: 1 (yes)

INPUT: State whether the measured Inhibition reaches 90%, counting equality as reaching it, for C=CCc1c(C(=O)NCC23CC4CC(CC(C4)C2)C3)nc2ccccc2c1O
OUTPUT: 0 (no)

INPUT: Quick check, Inhibition >= 90%? CCn1c(Sc2ccc(C#N)c([N+](=O)[O-])c2)nnc1-c1ccc(Cl)cc1
OUTPUT: 1 (yes)

INPUT: Determine whether measured Inhibition meets or exceeds 90% for O=C(O)C(F)(F)F.O=[N+]([O-])c1cccc(CNC2CCN(Cc3ccc(C(F)(F)F)cc3)CC2)c1
OUTPUT: 1 (yes)

INPUT: Evaluate CCc1cn2c3c(cc(C(=O)N[C@@H](Cc4cc(F)cc(F)c4)[C@H](O)CNC4CC4)cc13)N(C)S(=O)(=O)CC2.O=CO : Inhibition at minimum 90%?
OUTPUT: 1 (yes)

INPUT: Hello, I need to know if CC(C)(C)CNCC(C)(C)c1nc(-c2ccc(Cl)c(O)c2)c(-c2ccncc2)[nH]1.Cl has measured Inhibition not below 90%. Thanks!
OUTPUT: 1 (yes)

INPUT: Please tell me: is the compound CNC(=O)C(C)N(c1ccc(Cl)cc1)c1nc(C(C)(C)C)cs1 (centres undefined) at or over 90% in terms of Inhibition?
OUTPUT: 1 (yes)

INPUT: hey, is Inhibition for this one >= 90%? Cc1cc2nc(N=C3NC4(c5ccccn5)NC(=Nc5nc6cc(C)c(C)cc6[nH]5)NC4(c4ccccn4)N3)[nH]c2cc1C.O=C(O)C(F)(F)F (centres undefined)
OUTPUT: 0 (no)

Reference for the values: ChEMBL document CHEMBL1157539
